Assay: self-splicing fitness, log relative to wild type (ln ratio); higher = more splicing; Tetrahymena group I intron in knt gene, E. coli kanamycin selection, DiMSum; sequences stand for … in CUCUCU…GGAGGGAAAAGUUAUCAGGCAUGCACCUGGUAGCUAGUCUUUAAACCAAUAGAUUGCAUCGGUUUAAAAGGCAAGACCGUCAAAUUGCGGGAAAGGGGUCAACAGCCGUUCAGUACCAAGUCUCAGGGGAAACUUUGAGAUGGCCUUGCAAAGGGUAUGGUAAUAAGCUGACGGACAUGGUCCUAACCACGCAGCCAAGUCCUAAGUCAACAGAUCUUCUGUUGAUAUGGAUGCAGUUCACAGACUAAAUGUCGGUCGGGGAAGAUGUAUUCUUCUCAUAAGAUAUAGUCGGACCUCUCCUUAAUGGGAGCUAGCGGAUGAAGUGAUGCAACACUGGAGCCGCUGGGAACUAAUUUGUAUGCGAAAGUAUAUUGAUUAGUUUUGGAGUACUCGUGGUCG;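 also: selection with 25 µg/mL kanamycin versus none on LB agar overnight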
Details: 30 °C
Task for the reader: assign each of the following sequences its reported self-splicing fitness (ln).
Answers are plain numbers.

{"sequence text": "CGGGAGCAAUAUUACGUAGG", "parameter measured": "self-splicing fitness (ln)", "observed": -1.91}

I have 5 sequences here; please give me self-splicing fitness (ln) for each one.
1. CUCUAGCAAUAUUACGUUUU
2. AAAUAGCAAUAUUACGUUAA
3. AUCUAGCAAUAUUACGUGCU
4. UGAAAGCAAUAUUACGUGUU
5. CAGGAGCAAUAUUACGGAAU

stdout:
[-4.1, -2.87, -2.25, -3.21, -2.62]

---

Experiment: self-splicing fitness, log relative to wild type (ln ratio); higher = more splicing; Tetrahymena group I intron in knt gene, E. coli kanamycin selection, DiMSum; sequences stand for … in CUCUCU…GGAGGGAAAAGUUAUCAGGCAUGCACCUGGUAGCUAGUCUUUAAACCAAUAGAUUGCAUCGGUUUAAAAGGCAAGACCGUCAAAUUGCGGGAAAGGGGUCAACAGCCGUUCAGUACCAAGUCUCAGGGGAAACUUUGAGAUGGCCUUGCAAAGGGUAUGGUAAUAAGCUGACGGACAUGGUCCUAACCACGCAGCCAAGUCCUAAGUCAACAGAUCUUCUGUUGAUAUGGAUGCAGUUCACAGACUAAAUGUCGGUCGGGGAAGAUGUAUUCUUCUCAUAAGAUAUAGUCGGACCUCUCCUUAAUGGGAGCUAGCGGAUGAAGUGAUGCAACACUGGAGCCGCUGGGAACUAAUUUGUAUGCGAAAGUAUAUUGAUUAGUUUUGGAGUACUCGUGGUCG
Conditions: 30 °C
Task for the reader: assign each of the following sequences its reported self-splicing fitness (ln).
Give bare numbers.

{"sequence text": "GUCCAGCAAUAUUACGCCCU", "parameter measured": "self-splicing fitness (ln)", "observed": -0.888}
{"sequence text": "UAUCAGCAAUAUUACGGCUA", "parameter measured": "self-splicing fitness (ln)", "observed": 0.13}
{"sequence text": "GCCCAGCAAUAUUACGCAAU", "parameter measured": "self-splicing fitness (ln)", "observed": -1.23}

I have 4 sequences here; please give me self-splicing fitness (ln) for each one.
1. CUCAAGCAAUAUUACGGGUC
2. ACCAAGCAAUAUUACGUUAU
3. AAGUAGCAAUAUUACGAAAA
4. CGCAAGCAAUAUUACGUGCG

stdout:
-4.31
-2.95
-2.83
-2.81

I have 3 sequences here; please give me self-splicing fitness (ln) for each one.
1. AGAGAGCAAUAUUACGCGUA
2. GAAAAGCAAUAUUACGACCG
3. AAGUAGCAAUAUUACGGUAU

stdout:
[-2.46, -0.942, -2.25]

---

Test: self-splicing fitness, log relative to wild type (ln ratio); higher = more splicing; Tetrahymena group I intron in knt gene, E. coli kanamycin selection, DiMSum; sequences stand for … in CUCUCU…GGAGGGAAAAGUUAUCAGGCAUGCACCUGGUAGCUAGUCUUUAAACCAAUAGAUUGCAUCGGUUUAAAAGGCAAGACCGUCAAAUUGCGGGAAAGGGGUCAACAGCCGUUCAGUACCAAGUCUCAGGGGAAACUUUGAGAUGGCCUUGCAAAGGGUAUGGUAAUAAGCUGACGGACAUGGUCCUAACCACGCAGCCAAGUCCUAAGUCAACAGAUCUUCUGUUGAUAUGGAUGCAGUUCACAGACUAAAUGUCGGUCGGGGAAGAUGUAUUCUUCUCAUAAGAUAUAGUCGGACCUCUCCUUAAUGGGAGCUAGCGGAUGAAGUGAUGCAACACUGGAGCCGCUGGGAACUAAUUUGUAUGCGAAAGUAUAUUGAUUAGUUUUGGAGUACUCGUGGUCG
Conditions: 30 °C
parameter measured: self-splicing fitness (ln)
Numbers only.

Check out these entries, answers already filled in.
{"sequence text": "UGUGAGCAAUAUUACGCUAG", "self-splicing fitness (ln)": -3.43}
{"sequence text": "AGCUAGCAAUAUUACGUUCG", "self-splicing fitness (ln)": -2.57}
{"sequence text": "UCAGAGCAAUAUUACGAGCU", "self-splicing fitness (ln)": -2.68}
{"sequence text": "CUGGAGCAAUAUUACGUCUU", "self-splicing fitness (ln)": -3.27}

I have 8 sequences here; please give me self-splicing fitness (ln) for each one.
1. CUAAAGCAAUAUUACGGAUG
2. CAUGAGCAAUAUUACGGAGC
3. UUCCAGCAAUAUUACGAUCC
4. AUGCAGCAAUAUUACGGGCC
5. CGCCAGCAAUAUUACGAAGU
6. GCUGAGCAAUAUUACGGCCG
7. GCGCAGCAAUAUUACGGAAU
8. GGGCAGCAAUAUUACGUUCG

stdout:
[-0.152, -3.21, -1.46, -1.43, -3.65, -3.94, -1.12, -0.761]

I have 2 sequences here; please give me self-splicing fitness (ln) for each one.
1. CCCCAGCAAUAUUACGUCAG
2. GAAAAGCAAUAUUACGCCCG

stdout:
[-2.54, -0.583]

I have 4 sequences here; please give me self-splicing fitness (ln) for each one.
1. UAACAGCAAUAUUACGCUUA
2. AGGUAGCAAUAUUACGUGGU
3. CAGAAGCAAUAUUACGGUGG
4. AGCAAGCAAUAUUACGCCCA

stdout:
1. -0.77
2. -3.7
3. -1.26
4. -0.157

---

Assay: self-splicing fitness, log relative to wild type (ln ratio); higher = more splicing; Tetrahymena group I intron in knt gene, E. coli kanamycin selection, DiMSum; sequences stand for … in CUCUCU…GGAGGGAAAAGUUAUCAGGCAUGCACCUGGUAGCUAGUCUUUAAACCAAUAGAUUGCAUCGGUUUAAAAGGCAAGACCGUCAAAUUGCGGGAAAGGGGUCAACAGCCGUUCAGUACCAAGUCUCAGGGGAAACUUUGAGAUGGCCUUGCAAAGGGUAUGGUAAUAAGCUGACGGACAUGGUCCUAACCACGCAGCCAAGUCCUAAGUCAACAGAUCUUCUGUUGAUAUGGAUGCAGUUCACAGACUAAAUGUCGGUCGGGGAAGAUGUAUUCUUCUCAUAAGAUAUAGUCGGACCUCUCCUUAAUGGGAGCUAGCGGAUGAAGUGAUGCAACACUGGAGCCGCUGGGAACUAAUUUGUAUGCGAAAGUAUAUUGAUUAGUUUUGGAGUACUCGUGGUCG
Details: 37 °C
parameter measured: self-splicing fitness (ln)
Answers are plain numbers.

Check out these entries, answers already filled in.
{"sequence text": "UCUAAGCAAUAUUACGAUAA", "self-splicing fitness (ln)": -0.693}
{"sequence text": "CGAAAGCAAUAUUACGUAAU", "self-splicing fitness (ln)": -2.3}
{"sequence text": "GACGAGCAAUAUUACGGGUG", "self-splicing fitness (ln)": -1.89}
{"sequence text": "AGCCAGCAAUAUUACGUGAA", "self-splicing fitness (ln)": -1.81}
{"sequence text": "UGAAAGCAAUAUUACGCAAC", "self-splicing fitness (ln)": -1.69}

I have 6 sequences here; please give me self-splicing fitness (ln) for each one.
1. AAGCAGCAAUAUUACGGGAC
2. UACCAGCAAUAUUACGCUUU
3. CUCCAGCAAUAUUACGCAUC
4. CUAAAGCAAUAUUACGAAUG
5. GAAGAGCAAUAUUACGAGUA
6. ACAGAGCAAUAUUACGGUAU

stdout:
-3.38
-0.589
-2.4
0.497
-2.75
-3.75

I have 2 sequences here; please give me self-splicing fitness (ln) for each one.
1. UGAAAGCAAUAUUACGUACG
2. UCAGAGCAAUAUUACGCCUA

stdout:
[0.639, -1.61]

---

Task for the reader: assign each of the following sequences its reported self-splicing fitness (ln).
Assay: self-splicing fitness, log relative to wild type (ln ratio); higher = more splicing; Tetrahymena group I intron in knt gene, E. coli kanamycin selection, DiMSum; sequences stand for … in CUCUCU…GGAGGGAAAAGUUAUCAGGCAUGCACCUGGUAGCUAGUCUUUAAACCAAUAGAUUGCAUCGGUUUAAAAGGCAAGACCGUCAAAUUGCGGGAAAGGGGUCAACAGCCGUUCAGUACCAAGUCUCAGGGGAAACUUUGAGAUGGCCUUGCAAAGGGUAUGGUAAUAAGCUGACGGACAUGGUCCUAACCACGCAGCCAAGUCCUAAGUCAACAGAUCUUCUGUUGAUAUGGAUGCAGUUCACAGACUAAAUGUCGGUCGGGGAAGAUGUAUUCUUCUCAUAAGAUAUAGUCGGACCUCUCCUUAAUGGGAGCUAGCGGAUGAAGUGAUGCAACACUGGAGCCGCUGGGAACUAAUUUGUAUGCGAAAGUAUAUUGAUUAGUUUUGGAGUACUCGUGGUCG
Conditions: 30 °C
Give bare numbers.

{"sequence text": "GUCUAGCAAUAUUACGUAAU", "observed": -0.317}
{"sequence text": "CUCAAGCAAUAUUACGUGAU", "observed": -1.25}
{"sequence text": "AGCAAGCAAUAUUACGUGAC", "observed": -2.49}

I have 6 sequences here; please give me self-splicing fitness (ln) for each one.
1. ACGUAGCAAUAUUACGUAUA
2. CACUAGCAAUAUUACGUGCA
3. GUCUAGCAAUAUUACGCCUC
4. AUAAAGCAAUAUUACGCGAC
5. CGCUAGCAAUAUUACGACAU
6. GAGUAGCAAUAUUACGAAGA

stdout:
-3.36
-2.44
-0.0816
-1.4
-3.31
-2.63

Where these numbers come from: the supplement of paper PMC7877785
